Recorded Inhibitor-binding relative Kimutation, inhibitor binding in Model B by entry
method description: Determination of binding constants of inhibitor (NNIC) in Model B detergent, Suc-AAPF-pNA read-out
Type: biochemical
details: Ki of variant with the mutation relative to variant without the mutation, <1.0 beneficial
// keep it numeric: no unit symbol after the value

Reference set (3 entries):
>  <molecule>
K146W, S173P, S175P, F180Y: TY145 protease (SEQ ID NO 3) variant with these substitutions (protein, listed as Bacillus sp.) AVPSTQTPWGIKSIYNDQSITKTTGGSGIKVAVLDTGVYTSHLDLAGSAEQCKDFTQSNPLVDGSCTDRQGHGTHVAGTVLAHGGSNGQGVYGVAPQAKLWAYKVLGDNGSGYSDDIAAAIRHVADEASRTGSKVVINMSLGSSAWDSLIASAVDYAYGKGVLIVAAAGNSGPGPNTIGYPGGLVNAVAVAALENVQQNGTYRVADFSSRGNPATAGDYIIQERDIEVSAPGASVESTWYTGGYNTISGTSMATPHVAGLAAKIWSANTSLSHSQLRTELQNRAKVYDIKGGIGAGTGDDYASGFGYPRVK

>  <endpoint value>
0.23

$$$$
>  <molecule>
S173P, S175P, I178Y, F180Y: TY145 protease (SEQ ID NO 3) variant with these substitutions (protein, listed as Bacillus sp.) AVPSTQTPWGIKSIYNDQSITKTTGGSGIKVAVLDTGVYTSHLDLAGSAEQCKDFTQSNPLVDGSCTDRQGHGTHVAGTVLAHGGSNGQGVYGVAPQAKLWAYKVLGDNGSGYSDDIAAAIRHVADEASRTGSKVVINMSLGSSAKDSLIASAVDYAYGKGVLIVAAAGNSGPGPNTYGYPGGLVNAVAVAALENVQQNGTYRVADFSSRGNPATAGDYIIQERDIEVSAPGASVESTWYTGGYNTISGTSMATPHVAGLAAKIWSANTSLSHSQLRTELQNRAKVYDIKGGIGAGTGDDYASGFGYPRVK

>  <endpoint value>
0.53

$$$$
>  <molecule>
K146A, S173P, S175P, F180Y: TY145 protease (SEQ ID NO 3) variant with these substitutions (protein, listed as Bacillus sp.) AVPSTQTPWGIKSIYNDQSITKTTGGSGIKVAVLDTGVYTSHLDLAGSAEQCKDFTQSNPLVDGSCTDRQGHGTHVAGTVLAHGGSNGQGVYGVAPQAKLWAYKVLGDNGSGYSDDIAAAIRHVADEASRTGSKVVINMSLGSSAADSLIASAVDYAYGKGVLIVAAAGNSGPGPNTIGYPGGLVNAVAVAALENVQQNGTYRVADFSSRGNPATAGDYIIQERDIEVSAPGASVESTWYTGGYNTISGTSMATPHVAGLAAKIWSANTSLSHSQLRTELQNRAKVYDIKGGIGAGTGDDYASGFGYPRVK

>  <endpoint value>
0.34

$$$$

Query string: Name the recorded Inhibitor-binding relative Kimutation, inhibitor binding in Model B of the molecule listed here: S173P, S175P, F180Y, L184D: TY145 protease (SEQ ID NO 3) variant with these substitutions (protein, listed as Bacillus sp.) AVPSTQTPWGIKSIYNDQSITKTTGGSGIKVAVLDTGVYTSHLDLAGSAEQCKDFTQSNPLVDGSCTDRQGHGTHVAGTVLAHGGSNGQGVYGVAPQAKLWAYKVLGDNGSGYSDDIAAAIRHVADEASRTGSKVVINMSLGSSAKDSLIASAVDYAYGKGVLIVAAAGNSGPGPNTIGYPGGDVNAVAVAALENVQQNGTYRVADFSSRGNPATAGDYIIQERDIEVSAPGASVESTWYTGGYNTISGTSMATPHVAGLAAKIWSANTSLSHSQLRTELQNRAKVYDIKGGIGAGTGDDYASGFGYPRVK
Result string: 0.37
